- ASSAYED_SYSTEM: T1, human GIP receptor (human) (UniProt P48546)
- T1 sequence (looked up): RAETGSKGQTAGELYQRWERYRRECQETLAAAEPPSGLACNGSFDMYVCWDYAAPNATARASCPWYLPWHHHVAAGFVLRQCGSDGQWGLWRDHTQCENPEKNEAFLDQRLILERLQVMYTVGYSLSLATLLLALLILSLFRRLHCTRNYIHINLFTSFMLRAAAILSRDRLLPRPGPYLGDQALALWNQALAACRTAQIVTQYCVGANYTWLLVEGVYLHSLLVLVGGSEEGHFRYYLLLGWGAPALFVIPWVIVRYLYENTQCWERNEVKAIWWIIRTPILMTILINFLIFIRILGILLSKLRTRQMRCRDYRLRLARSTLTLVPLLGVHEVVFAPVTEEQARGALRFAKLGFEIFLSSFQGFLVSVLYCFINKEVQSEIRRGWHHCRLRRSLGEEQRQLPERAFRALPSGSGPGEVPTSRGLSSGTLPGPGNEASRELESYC
- ASSAY_INFO: cell-based or functional assay
Starred links: 1 amine or outer side, 2 acyl side, 3 side chain; linkers in the order of their positions; H or OH if unused. Non-standard residues stand in square brackets, D forms with d. Groups on a side chain read outwards from the residue. No end group written: not given here. *: point of attachment. C20 diacid = O=C(O)CCCCCCCCCCCCCCCCCCC(=O)*; γGlu = O=C(O)[C@H](CCC(=O)[*:2])N[*:1]; αMeL = CC(C)C[C@](C)(N)C(=O)O; AEEA = NCCOCCOCC(=O)O; Aib = CC(C)(N)C(=O)O
MEASURED_METRIC: Relative cAMP EC50 (nM)
Report the figure in nM without appending any unit label.

Field: example entries. Status: answers known.
>  <BINDER>
YXQGTFTSDXSQXLDKKAQXAFIEYLIAGGPSSGAPPPSGE (Aib, 4Pal, αMeL, Me4Pal; acylated lysine; amide; synthetic construct; SITE 2: note = 2-Aminoisobutyric Acid; SITE 10: note = 3-(4-Pyridyl)-L-alanine; SITE 13: note = alpha-methyl-leucine; SITE 17: note = Lysine is chemically modified through conjugation of the epsilon-amino group of the Lysine side chain with (Glu)2-(gamma-Glu)-CO-(CH2)16-CO2H; SI) [Example 1087]

>  <Relative cAMP EC50 (nM)>
0.207

$$$$
>  <BINDER>
YXQGTXTSDXXIXLDXKAAXEFIEXLIEGGPSSGAPPPSGX (C-terminal γGlu; C-terminal amide; synthetic construct; SITE 2: note = 2-Aminoisobutyric Acid; SITE 6: note = alpha-methyl-2-fluoro-L-phenylalanine; SITE 10: note = 3-(4-Pyridyl)-L-alanine; SITE 11: note = alpha-methyl-L-serine; SITE 13: note = alpha-methyl-leucine; SITE 16: note = L-ornithine; SITE 17: note = Lysine is chemically mo) [Example 722]

>  <Relative cAMP EC50 (nM)>
0.01

$$$$

Short answer for Y[Aib]QGTFTSDYSI[αMeL]LDKQAAK([AEEA-AEEA-γGlu-C20 diacid])QFVEWLIA[Aib]GPSSGEPPPGEG-NH2 [Example 333] : Relative cAMP EC50 was 0.265
